Values were extracted from patent US20150307520A1.

target: p110β/p85α (Homo sapiens); test: Transcreener KINASE Assay, kinase inhibition of p110β/p85α; assay type: biochemical; settings: 1 uM test compound
Sequence (P42338 whole entry): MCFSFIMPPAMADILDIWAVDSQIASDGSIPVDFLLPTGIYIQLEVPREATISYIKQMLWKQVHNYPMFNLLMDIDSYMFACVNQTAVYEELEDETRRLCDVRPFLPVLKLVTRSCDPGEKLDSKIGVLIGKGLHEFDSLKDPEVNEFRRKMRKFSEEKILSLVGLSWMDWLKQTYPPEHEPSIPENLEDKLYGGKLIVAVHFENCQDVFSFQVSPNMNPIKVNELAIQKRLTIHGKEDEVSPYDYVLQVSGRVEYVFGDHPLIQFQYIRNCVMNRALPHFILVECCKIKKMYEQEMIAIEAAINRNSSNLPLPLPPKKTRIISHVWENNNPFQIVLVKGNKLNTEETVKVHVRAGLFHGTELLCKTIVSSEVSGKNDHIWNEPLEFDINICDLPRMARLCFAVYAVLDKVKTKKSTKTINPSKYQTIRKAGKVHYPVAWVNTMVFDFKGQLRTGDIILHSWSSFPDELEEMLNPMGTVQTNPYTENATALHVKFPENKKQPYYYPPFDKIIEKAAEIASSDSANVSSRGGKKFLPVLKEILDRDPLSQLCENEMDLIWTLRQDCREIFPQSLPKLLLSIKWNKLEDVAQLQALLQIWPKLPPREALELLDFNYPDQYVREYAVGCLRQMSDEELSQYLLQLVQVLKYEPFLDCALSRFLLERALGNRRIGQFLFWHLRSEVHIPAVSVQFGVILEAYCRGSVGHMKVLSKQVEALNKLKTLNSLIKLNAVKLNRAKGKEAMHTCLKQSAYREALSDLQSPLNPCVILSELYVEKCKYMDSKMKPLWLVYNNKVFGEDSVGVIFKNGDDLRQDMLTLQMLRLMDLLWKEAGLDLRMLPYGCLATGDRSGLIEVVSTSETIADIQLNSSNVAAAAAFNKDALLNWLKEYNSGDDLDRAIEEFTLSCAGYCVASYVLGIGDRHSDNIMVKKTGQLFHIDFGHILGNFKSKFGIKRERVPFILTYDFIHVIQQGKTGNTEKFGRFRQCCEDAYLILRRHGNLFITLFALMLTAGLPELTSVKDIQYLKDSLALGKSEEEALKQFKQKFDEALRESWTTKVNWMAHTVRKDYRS
Sequence (P27986 2-724 partner): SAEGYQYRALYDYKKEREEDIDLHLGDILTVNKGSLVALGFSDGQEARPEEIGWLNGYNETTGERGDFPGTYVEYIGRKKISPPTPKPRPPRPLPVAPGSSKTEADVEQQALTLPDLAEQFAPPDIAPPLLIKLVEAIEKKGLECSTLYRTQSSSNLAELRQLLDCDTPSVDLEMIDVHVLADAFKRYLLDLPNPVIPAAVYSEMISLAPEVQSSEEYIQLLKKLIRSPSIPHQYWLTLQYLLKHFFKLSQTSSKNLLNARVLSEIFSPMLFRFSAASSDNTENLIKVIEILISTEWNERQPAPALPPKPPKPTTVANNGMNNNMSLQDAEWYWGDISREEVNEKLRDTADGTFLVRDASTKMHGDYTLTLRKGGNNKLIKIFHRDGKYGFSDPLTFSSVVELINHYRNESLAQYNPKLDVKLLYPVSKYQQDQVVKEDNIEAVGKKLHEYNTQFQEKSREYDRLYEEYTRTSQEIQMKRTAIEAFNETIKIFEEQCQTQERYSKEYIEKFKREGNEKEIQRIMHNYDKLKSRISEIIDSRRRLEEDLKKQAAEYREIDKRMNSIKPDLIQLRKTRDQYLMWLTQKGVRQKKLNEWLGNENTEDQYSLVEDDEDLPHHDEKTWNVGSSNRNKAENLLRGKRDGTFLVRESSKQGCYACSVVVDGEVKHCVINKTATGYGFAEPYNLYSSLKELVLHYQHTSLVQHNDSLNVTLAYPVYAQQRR
endpoint: PI3Kβ IH % @ 1 uM (%)

1. CC(Nc1ncnc2[nH]cc(C#N)c12)c1cc2ccc(Cl)n2c(=O)n1-c1ccccc1 (stereo not shown) | 95.0
2. N#Cc1c[nH]c2ncnc(N3CC[C@H]3c3nn4ccc(Cl)c4c(=O)n3-c3ccccn3)c12 | 35.5
3. N#Cc1c[nH]c2ncnc(N3CC(=O)C[C@H]3c3nn4ccc(Cl)c4c(=O)n3-c3ccccc3)c12 | 87.8
4. COc1cccc(-n2c([C@@H]3CCN3c3ncnc4[nH]cnc34)nn3ccc(Cl)c3c2=O)c1 | −3.1

###

target: UniProt P48736; test: Transcreener KINASE Assay, kinase inhibition of p110γ; type: biochemical; settings: 1 uM test compound
Sequence (P48736 whole entry): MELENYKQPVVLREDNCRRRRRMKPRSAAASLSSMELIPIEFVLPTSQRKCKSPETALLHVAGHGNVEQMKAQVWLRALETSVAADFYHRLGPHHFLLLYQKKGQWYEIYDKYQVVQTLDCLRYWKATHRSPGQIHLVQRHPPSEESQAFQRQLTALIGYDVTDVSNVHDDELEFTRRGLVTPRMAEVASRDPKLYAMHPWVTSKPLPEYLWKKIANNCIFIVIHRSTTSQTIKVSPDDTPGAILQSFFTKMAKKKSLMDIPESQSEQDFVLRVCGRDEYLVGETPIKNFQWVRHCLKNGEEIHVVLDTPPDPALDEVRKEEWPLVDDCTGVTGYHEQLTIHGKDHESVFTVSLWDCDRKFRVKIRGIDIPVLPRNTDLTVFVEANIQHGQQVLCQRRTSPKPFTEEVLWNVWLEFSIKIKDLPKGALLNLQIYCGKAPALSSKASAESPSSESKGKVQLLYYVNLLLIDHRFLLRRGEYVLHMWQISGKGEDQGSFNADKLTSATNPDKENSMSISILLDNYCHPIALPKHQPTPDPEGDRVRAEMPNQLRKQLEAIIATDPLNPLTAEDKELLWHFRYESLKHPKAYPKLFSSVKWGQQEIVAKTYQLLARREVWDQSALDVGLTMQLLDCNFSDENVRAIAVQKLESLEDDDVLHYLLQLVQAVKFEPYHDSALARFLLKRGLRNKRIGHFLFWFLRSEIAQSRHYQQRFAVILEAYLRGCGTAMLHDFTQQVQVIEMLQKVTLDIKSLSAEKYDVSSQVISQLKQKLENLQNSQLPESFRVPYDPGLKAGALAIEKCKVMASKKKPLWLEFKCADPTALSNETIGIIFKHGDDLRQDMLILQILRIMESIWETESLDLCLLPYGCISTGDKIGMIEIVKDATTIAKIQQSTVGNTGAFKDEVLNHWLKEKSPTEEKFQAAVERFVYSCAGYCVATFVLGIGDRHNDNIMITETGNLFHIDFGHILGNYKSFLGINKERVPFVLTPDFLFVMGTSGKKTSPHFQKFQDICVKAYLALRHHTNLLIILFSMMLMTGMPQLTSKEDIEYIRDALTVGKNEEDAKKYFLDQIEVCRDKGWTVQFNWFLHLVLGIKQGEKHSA
Quick list: PI3Kγ IH % @ 1 uM per entry.
endpoint: PI3Kγ IH % @ 1 uM (%)

1. CC(=O)c1c[nH]c2ncnc(N3CCC[C@H]3c3nn4ccc(Cl)c4c(=O)n3-c3ccccn3)c12 [Compound 340] | 94.3
2. Nc1ncc(F)c(N2CCC[C@H]2c2nn3ccc(Cl)c3c(=O)n2-c2ccccc2)n1 [Compound 215] | 88.1
3. C[C@H]1CN(c2ncnc3[nH]cc(C#N)c23)[C@@H]1c1nn2ccc(F)c2c(=O)n1-c1ccccc1 [Compound 244] | 92.7
4. C[C@H]1CN(c2nc(N)ncc2C#N)C1c1nn2ccc(Cl)c2c(=O)n1-c1ccccc1 (stereo partly drawn) [Compound 431] | 95.9
5. CC(=O)c1c[nH]c2ncnc(N3CC(=O)C[C@H]3c3nn4ccc(Cl)c4c(=O)n3-c3ccccc3)c12 [Compound 402] | 65.8
6. N#Cc1c[nH]c2ncnc(N3C[C@@H](F)C[C@H]3c3nn4ccc(F)c4c(=O)n3-c3ccccn3)c12 [Compound 346] | 94.1
7. O=C1C[C@@H](c2nn3ccc(F)c3c(=O)n2-c2ccccc2)N(c2ncnc3[nH]cnc23)C1 [Compound 400] | 70.4
8. N#Cc1c(N)ncnc1N1CC(F)(F)C[C@H]1c1nn2ccc(Cl)c2c(=O)n1-c1ccccc1 [Compound 141] | 92.3
9. CCc1ccn2nc([C@@H]3CCN3c3ncnc4[nH]cc(C#N)c34)n(-c3ccccc3)c(=O)c12 [Compound 133] | 65.9
10. O=c1c2c(Cl)ccn2cc(C2CCCN2c2ncnc3[nH]cnc23)n1-c1ccccc1 (stereo not drawn) [Compound 363] | 98.3
11. COc1cccc(-n2c([C@@H]3CCN3c3ncnc4[nH]cnc34)nn3ccc(Cl)c3c2=O)c1 [Compound 33] | 63.7
12. C[S@+]([O-])c1c[nH]c2ncnc(N3CCC[C@H]3c3nn4ccc(F)c4c(=O)n3-c3ccccc3)c12 [Compound 396] | 94.1
13. Nc1nc2c(c(N3CC[C@H]3c3nn4ccc(Cl)c4c(=O)n3-c3ccccc3)n1)CCC2 [Compound 247] | 73.0
14. O=c1c2c(Cl)ccn2nc([C@@H]2CCN2c2ncnc3[nH]cc(F)c23)n1-c1ccccc1 [Compound 148] | 83.0
15. CC(Nc1ncnc2[nH]cc(C#N)c12)c1cn2ccc(Cl)c2c(=O)n1-c1ccccc1 (stereo not drawn) [Compound 88] | 98.0
16. CC(=O)c1cnc(N)nc1N1CCC[C@H]1c1nn2ccc(Cl)c2c(=O)n1-c1ccccc1 [Compound 369] | 90.4
17. C[S@@+]([O-])c1c[nH]c2ncnc(N3CC[C@H]3c3nn4ccc(Cl)c4c(=O)n3-c3ccccn3)c12 [Compound 391] | 90.5
18. CC(=O)c1c[nH]c2ncnc(N3CC[C@H]3c3nn4ccc(Cl)c4c(=O)n3-c3ccccn3)c12 [Compound 312] | 93.7
19. C[C@H]1CN(c2ncnc3[nH]cc(C#N)c23)[C@@H]1c1nn2ccc(Cl)c2c(=O)n1-c1ccc(F)cc1 [Compound 468] | 96.6
20. Cc1ccn2nc([C@@H]3CCCN3c3ncnc4[nH]cc(C#N)c34)n(-c3ccccc3)c(=O)c12 [Compound 42] | 91.2
21. Nc1ncc(-c2c[nH]c3ncnc(N4CC[C@H]4c4nn5ccc(F)c5c(=O)n4-c4ccccc4)c23)cn1 [Compound 180] | 98.7
